biological target: Trypsin (Bos taurus, UniProt P00760); assay: biochemical; design: species or system Bovine; conditions: read-out: Kass Trypsin (converted)
Sequence (P00760 24-246): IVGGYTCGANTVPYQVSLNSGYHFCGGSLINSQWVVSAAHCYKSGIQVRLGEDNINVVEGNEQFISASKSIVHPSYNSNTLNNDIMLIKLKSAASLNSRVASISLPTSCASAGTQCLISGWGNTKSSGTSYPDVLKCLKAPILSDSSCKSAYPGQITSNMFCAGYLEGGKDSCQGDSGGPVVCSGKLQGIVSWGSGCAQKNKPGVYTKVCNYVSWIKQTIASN
Structures can show the parent of a compound that is named as a salt.
reported endpoint: Kd (µM)

[[record]]
molecule = "CCS(=O)(=O)N[C@H](CC1CCCCC1)C(=O)N1CCC[C@H]1C(=O)NCc1ccnc(N)c1"
result = 33.3

[[record]]
molecule = "CCOC(=O)N[C@H](Cc1ccccc1)C(=O)N1CCC[C@H]1C(=O)NCCCCNC(=N)N [Example 3, EtOCO-D-Phe-Pro-Agm·HCl]"
result = 4.17

[[record]]
molecule = "N=C(N)c1ccc(CNC(=O)[C@@H]2C[C@@H]3CCCC[C@@H]3N2C(=O)[C@@H](Cc2ccccc2)NCC(=O)O)cc1"
result = 0.0122

[[record]]
molecule = "NCc1cccc(CNC(=O)[C@@H]2CCCN2C(=O)[C@H](N)Cc2ccccc2)c1 [Example 11, D-Phe-Pro-m-NHCH2C6H4CH2NH2·HCl]"
result = 278

[[record]]
molecule = "N=C(N)c1ccc(CNC(=O)[C@@H]2CCCN2C(=O)[C@@H](CC2CCCCC2)NCCCC(=O)O)cc1"
result = 0.0325

[[record]]
molecule = "N=C(N)c1ccc(CNC(=O)[C@@H]2CCCN2C(=O)[C@@H](Cc2ccccc2)NCC(=O)O)cc1"
result = 0.0208

[[record]]
molecule = "N=C(N)c1cccc(CCCNC(=O)[C@@H]2CCCN2C(=O)[C@@H]2NCC[C@@H]3CCCC[C@@H]32)c1"
result = 50

[[record]]
molecule = "CCS(=O)(=O)N[C@H](CC1CCCCC1)C(=O)N1CCC[C@H]1C(=O)NCc1ccc(C(=N)N)cc1 [Example 80, EtSO2-D-Cha-Pro-4-NHCH2C6H4C(NH)NH2·HCl]"
result = 0.0111

[[record]]
molecule = "N=C(N)c1ccc(CNC(=O)[C@@H]2CCCN2C(=O)[C@@H](CC2CCCCC2)NCC(=O)O)c(F)c1"
result = 0.00417

[[record]]
molecule = "NC[C@H]1CC[C@H](CNC(=O)[C@@H]2CCCN2C(=O)[C@H](N)Cc2ccccc2)CC1"
result = 455

[[record]]
molecule = "N=C(N)c1cc(F)c(CNC(=O)[C@@H]2CCCN2C(=O)[C@@H](CC2CCCCC2)NCC(=O)O)c(F)c1"
result = 0.00357

[[record]]
molecule = "CCS(=O)(=O)N[C@H](Cc1ccccc1)C(=O)N1CCC[C@H]1C(=O)NCc1ccc(NC(=N)N)cc1"
result = 2.04

[[record]]
molecule = "N=C(N)c1ccc(CCCNC(=O)[C@@H]2CCCN2C(=O)[C@@H]2NCC[C@@H]3CCCC[C@@H]32)cc1"
result = 25

[[record]]
molecule = "N=C(N)NCCCNC(=O)[C@@H]1CCCN1C(=O)[C@H](N)Cc1ccccc1 [Example 7, D-Phe-Pro-NH(CH2)3NHC(NH)NH2·HCl]"
result = 123

[[record]]
molecule = "CS(=O)(=O)CC(=O)N[C@H](CC1CCCCC1)C(=O)N1CCC[C@H]1C(=O)NCc1ccc(C(=N)N)cc1"
result = 0.13

[[record]]
molecule = "O=C(O)CN[C@H](CC1CCCCC1)C(=O)N1CCC[C@H]1C(=O)NCCC1=CCNCC1"
result = 4.76

[[record]]
molecule = "N=C(N)c1ccc(CNC(=O)[C@@H]2C[C@@H]3CCCC[C@@H]3N2C(=O)[C@H]2CCCCN2)cc1 [Example 20, D-hPro-Ohi-p-NHCH2C6H4C(NH)NH2·3HCl]"
result = 0.0526

[[record]]
molecule = "CCS(=O)(=O)N[C@H](Cc1ccccc1)C(=O)N1CCC[C@H]1C(=O)NCCCCNC(=N)N [Example 1, EtS02-D-Phe-Pro-Agm·HCl]"
result = 2.63

[[record]]
molecule = "N=C(N)NCCCCCCNC(=O)[C@@H]1CCCN1C(=O)[C@H](N)Cc1ccccc1 [Example 5, D-Phe-Pro-NH(CH2)6NHC(NH)NH2·HCl]"
result = 6670

[[record]]
molecule = "N=C(N)c1ccc(CNC(=O)[C@@H]2CCCN2C(=O)[C@H](N)CC2CCCCC2)cc1 [Example 51, D-Cha-Pro-p-NHCH2C6H4C(NH)NH2·2HCl]"
result = 0.037

[[record]]
molecule = "N=C(N)c1ccc(CNC(=O)[C@@H]2CCCN2C(=O)[C@H]2C[C@H]3CCCC[C@H]3CN2)cc1 [Example 19, D-3-Piq-Pro-p-NHCH2C6H4C(NH)NH2·3HCl]"
result = 0.0244

[[record]]
molecule = "O=C(O)CN[C@H](CC1CCCCC1)C(=O)N1CCC[C@H]1C(=O)NCCCC1=CCNCC1"
result = 33.3

[[record]]
molecule = "O=C(O)CN[C@H](CC1CCCCC1)C(=O)N1CCC[C@H]1C(=O)NCC1CCNCC1 [Example 53, HO2CCH2-D-Cha-Pro-4-NHCH2-piperidine·HCl]"
result = 10

[[record]]
molecule = "N=C(N)c1ccc(CNC(=O)[C@@H]2CCCN2C(=O)[C@@H](CC2CCCCC2)NCCC(=O)O)cc1"
result = 0.0213

[[record]]
molecule = "CCS(=O)(=O)N[C@H](CC1CCCCC1)C(=O)N1CCC[C@H]1C(=O)NCCCCNC(=N)N [Example 2, EtSO2-D-Cha-Pro-Agm·HCl]"
result = 1

[[record]]
molecule = "CCS(=O)(=O)N[C@@H](C(=O)N1[C@H](C(=O)NCc2ccc(C(=N)N)cc2)C[C@@H]2CCCC[C@@H]21)c1ccccc1 (relative stereo) [Example 44, HCl]"
result = 0.000385


Source listed as patent EP0672658B1.
